What pEC50 was measured for each of the following?
- study_target: hM1 (human Muscarinic receptor subtype 1) (Homo sapiens, UniProt P11229)
- Sequence (P11229 whole entry): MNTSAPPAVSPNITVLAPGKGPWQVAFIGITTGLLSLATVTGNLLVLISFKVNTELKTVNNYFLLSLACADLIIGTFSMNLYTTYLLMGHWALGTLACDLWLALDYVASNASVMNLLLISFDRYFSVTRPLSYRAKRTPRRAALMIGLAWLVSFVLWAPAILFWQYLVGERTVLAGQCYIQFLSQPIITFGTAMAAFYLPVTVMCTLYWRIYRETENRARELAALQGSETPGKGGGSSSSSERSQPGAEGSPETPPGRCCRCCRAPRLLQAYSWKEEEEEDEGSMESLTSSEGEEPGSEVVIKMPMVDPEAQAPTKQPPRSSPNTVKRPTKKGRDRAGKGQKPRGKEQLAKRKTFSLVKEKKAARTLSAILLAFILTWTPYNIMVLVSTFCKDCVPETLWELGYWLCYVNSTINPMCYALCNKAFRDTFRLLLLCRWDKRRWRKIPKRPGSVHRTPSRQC
- assay_details: Human M1 calcium mobilization FLIPR assay
- assay_context: hM1 expressed in CHO cells, intracellular Ca2+ release (FLIPR)
Scale note: pEC50 = -log10(concentration in M).

Prompt line: Find pEC50 (hM1 (human Muscarinic receptor subtype 1) (Homo sapiens, UniProt P11229)) for the entry O=C1CO[C@H]2CCCC[C@@H]2N1C1CCN(C2CCC(COCC3CCC3)CC2)CC1 (single isomer, unassigned) [Example 28]
Response line: 7.29

Prompt line: Queued: CCCOCC1CCC(N2CCC(N3C(=O)NC[C@H]4CCCC[C@@H]43)CC2)CC1 (single isomer, unassigned) [Example 01]
Response line: 7.68

Prompt line: Queued: `CCOC[C@H]1CC[C@@H](N2CCC(N3C(=O)CO[C@H]4CCCC[C@@H]43)CC2)C1`
Response line: 8.38

Prompt line: Queued: CCOCC1CCC(N2CCC(N3C(=O)CO[C@H]4CCCC[C@@H]43)CC2)C1 (single isomer, unassigned) [Example 45]
Response line: 7.32

Prompt line: Queued: CCOCC1CCC(N2CCC(N3C(=O)CO[C@H]4CCCC[C@@H]43)CC2)CC1 (single isomer, unassigned) [Example 14]
Response line: 8.00
